Test system: BT-549 breast
method notes: NCI-60 one-dose screen, 48 h (100 = growth as untreated, 0 = no growth, -100 = all killed)
condition: 10 µM unless noted
The panel holds about 83,000 compounds, 20% with a hit somewhere; the sample as a whole holds those more often.
Reported growth values follow for various compounds
Give the quantity in %, number only.

Observe how each entry below is paired with its result.
[
  {
    "compound": "O=C1C(=C(O)c2ccccc2)C(=O)c2ccccc21",
    "growth, %": 95.7
  },
  {
    "compound": "COc1c(NC=O)c2c(c([N+](=O)[O-])c1OC)C(=O)OC2",
    "growth, %": 94.4
  },
  {
    "compound": "Cc1c(C(=O)OCCCCOC(=O)c2c(C)n(C)c3scc[n+]23)[n+]2ccsc2n1C",
    "growth, %": 110
  },
  {
    "compound": "O=C(CC1(O)C(=O)Nc2ccc(Br)cc21)c1ccc(Cl)cc1 (stereo not given)",
    "growth, %": 99.9
  },
  {
    "compound": "O=C1C(c2c[nH]c3ccccc23)=C(c2coc3cc(Br)ccc23)C(=O)N1O",
    "growth, %": 103
  }
]

// recorded growth for CCCN1C(=O)/C(=c2\sc3n(c2=O)NC2C(N=3)N(CC)C(=O)N2CC)c2ccccc21 (stereo not given) : 62.8

// recorded growth for COC(=O)c1nc(-c2ccc(C)cc2)oc1S(=O)(=O)c1ccc(Cl)cc1 : 83.4

// recorded growth for O=C1/C(=C/c2ccc(-c3ccccc3C(F)(F)F)o2)SC(=S)N1CCc1ccc(O)cc1 : 61.7

// recorded growth for CC1(Cc2ccccc2)CC2=C(C(=O)O1)C(c1ccccc1)NC(=O)N2 (stereo not given) : 104

// recorded growth for COc1ccc(Cn2cc(C(=O)Nc3cccnc3Nc3ccccc3)nn2)cc1 : 86.9

* * *

System: SF-539 CNS
method notes: NCI-60 one-dose screen, 48 h
condition: 10 µM unless noted
About 83,000 compounds went through this panel and 20% of them were active in at least one assay; those are over-represented in the sample as a whole. Activity calls are given as the source filed them. The calls were made as follows: active = growth percent below 10; inactive = the rest.
Parameter call: string, one of active, inactive

The following molecules have reported results that may help.
[
  {
    "molecule": "Clc1ccc(CNc2ccc3nc(CCC4CCCCC4)[nH]c3c2)cc1",
    "class name": "inactive"
  },
  {
    "molecule": "CC1=CC=C(NC(=O)/C=C/c2ccccc2)CC1Nc1nccc(-c2cccnc2)n1 (configuration not stated)",
    "class name": "inactive"
  },
  {
    "molecule": "C=C(CNCCc1ccc(O)cc1)[C@@H]1CC[C@]2(CO)CC[C@]3(C)[C@H](CC[C@@H]4[C@@]5(C)CCC(NCCc6ccc(O)cc6)C(C)(C)[C@@H]5CC[C@]43C)[C@@H]12 (some centres not stated)",
    "class name": "active"
  },
  {
    "molecule": "C=C1CC[C@@H]2[C@](C)(COC(C)=O)[C@H](OC(C)=O)CC[C@@]2(C)[C@@H]1CC(Nc1ccc(S(=O)(=O)Nc2nccs2)cc1)C1=CCOC1=O (some centres not stated)",
    "class name": "active"
  },
  {
    "molecule": "CN1C(=O)/C(=C/c2ccc(C(=O)Nc3ncc(Cc4ccccc4Cl)s3)cc2)SC1=S",
    "class name": "inactive"
  }
]

Exercise: Write down the call the test reported for this molecule. Item: O=C(Nc1ccc2ccccc2c1)c1cc2ccccc2cc1O
Key: inactive

Exercise: Write down the call the test reported for this molecule. Item: C#CCn1cnc2cnc(Nc3cccc(NC(=O)CCl)c3)nc21
Key: active

Exercise: Write down the call the test reported for this molecule. Item: O=c1ccc2nc(-c3ccccn3)nn(-c3ccccc3)c-2c1
Key: inactive

Exercise: Write down the call the test reported for this molecule. Item: N#Cc1ccccc1OCC(=O)Nc1nc2c(s1)COc1ccccc1-2
Key: inactive

Exercise: Write down the call the test reported for this molecule. Item: COc1ccc(/C=C(\C#N)c2cc3ccccc3[nH]2)cc1
Key: inactive

Exercise: Write down the call the test reported for this molecule. Item: CON1CCC[C@]2(C)[C@H]3CC[C@@H]4[C@H]5[C@@H](O)C(C)(C)CC[C@]5(CO)CC[C@@]4(C)[C@]3(C)CC[C@H]2C1(C)C
Key: inactive

Exercise: Write down the call the test reported for this molecule. Item: Cc1cc(N2CCN(CC(=O)Nc3ccc4c(ccn4Cc4ccccc4)c3)CC2)nc(N2CCCCCC2)n1
Key: inactive
